measurement-notes: monoprotic acid or base: log K of the neutral species extrapolated from the linear regression of D on the neutral fraction (from pKa and pH; the paper's eq. for monoprotic IOCs), the slope giving K of the neutral species; replicates column holds the table's 95% confidence limits. PDMS sheets cleaned by Soxhlet with ethyl acetate; batch shaking method with a mixture of all chemicals at several PDMS-mass to water-volume ratios and spiked levels; vials shaken on an orbital shaker at room temperature in the dark, sampled at two equilibration times; PDMS extracts and water quantified by LC-HRMS (Orbitrap); D from the slope of C_PDMS on C_w or their ratio
condition-details: PDMS (polydimethylsiloxane silicone sheet); phosphate buffer at three target pH values (the paper's methods)
readout-type: log K PDMS/w (neutral species)

# compound, readout-type, result
data = [
    ("CC(C)(C)c1ccc(S(N)(=O)=O)cc1", "log K PDMS/w (neutral species)", "1.285 log units; D and K as the pape"),
    ("c1ccc2sc(NC3CCCCC3)nc2c1", "log K PDMS/w (neutral species)", "3.105 log units; D and K as the pape"),
    ("Cc1ccc2[nH]nnc2c1", "log K PDMS/w (neutral species)", "0.3619 log units; D and K as the pape"),
    ("N#CSCSc1nc2ccccc2s1", "log K PDMS/w (neutral species)", "1.892 log units; D and K as the pape"),
    ("Cc1cc(=O)oc2cc(N)ccc12", "log K PDMS/w (neutral species)", "0.9136 log units; D and K as the pape"),
]

// returns reported log K PDMS/w (neutral species) for input `CC(C)C(=O)Nc1ccc([N+](=O)[O-])c(C(F)(F)F)c1`
1.525 log units; D and K as the pape

// returns reported log K PDMS/w (neutral species) for input c1ccc(-c2ccc(C(c3ccccc3)n3ccnc3)cc2)cc1 (stereo not shown)
4.281 log units; D and K as the pape

// returns reported log K PDMS/w (neutral species) for input `CCNc1ccc2c(C)cc(=O)oc2c1`
2.015 log units; D and K as the pape

// returns reported log K PDMS/w (neutral species) for input O=C1Nc2ccc(Cl)cc2C(C#CC2CC2)(C(F)(F)F)O1 (stereo not shown)
2.899 log units; D and K as the pape

// returns reported log K PDMS/w (neutral species) for input `CO/C=C(/C(=O)O)c1ccccc1Oc1cc(Oc2ccccc2C#N)ncn1`
1.355 log units; D and K as the pape

// returns reported log K PDMS/w (neutral species) for input `c1ccc2c(c1)[nH]c1cnccc12`
2.353 log units; D and K as the pape

// returns reported log K PDMS/w (neutral species) for input `CCN(CC)c1ccc2c(C)cc(=O)oc2c1`
2.913 log units; D and K as the pape

// returns reported log K PDMS/w (neutral species) for input `O=C(O)Cc1ccccc1Nc1c(Cl)cccc1Cl`
1.867 log units; D and K as the pape

// returns reported log K PDMS/w (neutral species) for input `NC(=O)/N=C1\SCCN1Cc1ccc(Cl)nc1`
0.4822 log units; D and K as the pape

// returns reported log K PDMS/w (neutral species) for input `CNC(=O)Oc1cccc2ccccc12`
1.106 log units; D and K as the pape

// returns reported log K PDMS/w (neutral species) for input `CCNS(=O)(=O)c1ccccc1C`
0.5936 log units; D and K as the pape

// returns reported log K PDMS/w (neutral species) for input NC(=O)N1c2ccccc2C(O)C(O)c2ccccc21 (stereo not shown)
0.07041 log units; D and K as the pape

// returns reported log K PDMS/w (neutral species) for input `CCNC(=O)[C@@H](C)OC(=O)Nc1ccccc1`
-0.07551 log units; D and K as the pape

// returns reported log K PDMS/w (neutral species) for input `CCOC(=O)c1ccc(N)cc1`
0.5546 log units; D and K as the pape

// returns reported log K PDMS/w (neutral species) for input `O=c1c2ccccc2[nH]c2ccccc12`
1.406 log units; D and K as the pape

// returns reported log K PDMS/w (neutral species) for input `CCOC(=O)CC(O)(CC(=O)OCC)C(=O)OCC`
0.9455 log units; D and K as the pape

// returns reported log K PDMS/w (neutral species) for input `CCOC(=O)c1ccc(N(C)C)cc1`
2.315 log units; D and K as the pape
